So I've got a bunch of compounds here, and I need their pIC50 values.
molecular target: recombinant human MetAP2 (Homo sapiens); construct: Flag; made in house; assay: Recombinant human MetAP2 enzyme inhibition assay (MAS peptide / amino acid oxidase / Amplex UltraRed); type: biochemical
Sequence (P50579 whole entry): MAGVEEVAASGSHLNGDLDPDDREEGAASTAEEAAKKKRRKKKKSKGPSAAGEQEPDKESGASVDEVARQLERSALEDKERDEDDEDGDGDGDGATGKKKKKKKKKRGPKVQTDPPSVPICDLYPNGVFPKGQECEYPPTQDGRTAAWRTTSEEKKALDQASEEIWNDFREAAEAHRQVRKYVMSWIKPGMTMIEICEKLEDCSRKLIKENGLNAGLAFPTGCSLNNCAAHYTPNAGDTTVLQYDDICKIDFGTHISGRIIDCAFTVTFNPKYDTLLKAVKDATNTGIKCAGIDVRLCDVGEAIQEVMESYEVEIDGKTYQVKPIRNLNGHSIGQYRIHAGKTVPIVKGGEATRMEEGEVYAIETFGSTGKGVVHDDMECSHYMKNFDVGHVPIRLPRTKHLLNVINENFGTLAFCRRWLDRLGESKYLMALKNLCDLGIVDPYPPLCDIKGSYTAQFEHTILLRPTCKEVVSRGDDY
pIC50: −log10 of the molar value. Counter-ions that a name gives are not always drawn.

## Task # returns recorded pIC50 (system: recombinant human MetAP2 (Homo sapiens)) for CO[C@@H]1[C@H](OC(=O)N2CC(CCN3CC(O)C3)C2)CC[C@]2(CO2)[C@H]1[C@@]1(C)O[C@@H]1CC=C(C)C [Example 6, formate]
## Result > 7.30

## Task Check CO[C@@H]1[C@H](OC(=O)N2CC(CCN3CC(C)(O)C3)C2)CC[C@]2(CO2)[C@H]1[C@@]1(C)O[C@@H]1CC=C(C)C [Example 9, formate] too.
## Result > 7.30

## Task Cool, now CO[C@@H]1[C@H](OC(=O)N2CC(CCN3CC4C(C3)C4(F)F)C2)CC[C@]2(CO2)[C@H]1[C@@]1(C)O[C@@H]1CC=C(C)C (stereo partly drawn) [Example 22, formate]
## Result > 7.30
